This collection of values is drawn from patent US10765754B2.

# TARGET OF ASSAY: RSV-B/IZN45 (Human respiratory syncytial virus B)
# Construct: N-trimer Mimics Synthesized; made in house; host or cells: chemical peptide synthesis
# Sequence (O36634 163-207, added parts left off): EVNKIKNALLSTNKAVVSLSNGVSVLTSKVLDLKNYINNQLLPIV
# TEST SUMMARY: biochemical
# Assay type: binding
# RECORDED CONDITIONS: synthesized peptide; RSV-B/IZN45; KD determined by SPR
Non-standard residues stand in square brackets, D forms with d. Residues, ends and D or L forms follow the SMILES beside them.
VALUE KIND: Kd (µM)
Write the number in µM without appending the unit.

Supply reported Kd belonging to this compound: CC[C@@H](C)[C@@H](NC(=O)[C@H](NC(=O)[C@@H](CCCCN)NC(=O)[C@@H](CO)NC(C)=O)C(C)C)C(=O)N[C@H](CC(C)C)C(=O)N1CCC[C@@H]1C(=O)N[C@H](CCC(=O)O)C(=O)N1CCC[C@@H]1C(=O)N[C@H](Cc1ccccc1)C(=O)N[C@H](Cc1c[nH]c2ccccc12)C(=O)N[C@H](Cc1c[nH]c2ccccc12)C(=O)N1CCC[C@@H]1C(=O)NCC(=O)NCC(N)=O [Ac-X12-47-GG] (Ac-[dS][dK][dV][dI][dL][dP][dE][dP][dF][dW][dW][dP]GG-NH2) 15
